Target: Human neutrophil elastase (Homo sapiens)
Construct: purchased Elastin Products Company, Inc. (EPC, Owensville, USA) SE563
Test: HNE inhibitory activity in vitro (fluorescence-quenched substrate)
Type: biochemical
Conditions: Table 11; read-out: human neutrophile elastase IC 50
Method: Human neutrophil elastase (cat. no. SE563) is purchased from Elastin Products Company, Inc. (EPC, Owensville, USA). […] The fluorescence-quenched substrate (DABCYL-Ser-Glu-Val^Asn-Leu-Asp-Ala-Glu-Phe-EDANS, where ^ indicates the scissile bond, identified by MS analysis) was purchased from Bachem AG (Bubendorf, Switzerland), and kept as a 5 mM stock solution in DMSO at −20° C. […] For fluorescence intensity (FI) measurements an Ultra Evolution reader (TECAN, Maennedorf, Switzerland) is used. […]
Where a SMILES comes first, the peptide text is derived from it. Bridges are numbered along the chain shown (N, C = ends). [ ]: non-standard residue; d: D form. The star is where a group is joined. NMeY = CN[C@@H](Cc1ccc(O)cc1)C(=O)O; Isovaleryl = CC(C)CC(=O)*
measuredEndpoint: IC50 (nM)

Field: example entries. Status: answers known.
CCC(C)[C@@H]1NC(=O)[C@H](Cc2ccc(OCC(=O)OC(C)(C)C)cc2)N(C)C(=O)[C@H](C(C)CC)N2CCCC(NC(=O)[C@H](CC(C)C)NC(=O)[C@@H](NC(=O)[C@H](CCC(N)=O)NC(=O)C(C)C)[C@@H](C)OC1=O)C2=O (stereo partly shown) [example 33]	35
CC(C)CC(=O)N[C@@H](CCC(N)=O)C(=O)N[C@@H]1C(=O)N[C@@H](CC(C)C)C(=O)N2CCC[C@@H]2C(=O)N[C@@H](Cc2ccccc2)C(=O)N(C)[C@@H](Cc2ccc(O)cc2)C(=O)N[C@@H](C(C)C)C(=O)O[C@@H]1C [formula IX] (Isovaleryl-QTL[dP]F[NMeY]V; ester 2-C)	10

1. CCCOC1CCC2NC(=O)C(CC(C)C)NC(=O)C(NC(=O)C(CCC(N)=O)NC(=O)C(C)C)C(C)OC(=O)C(C(C)CC)NC(=O)C(Cc3ccc(OCc4cc(C)n(C)n4)cc3)N(C)C(=O)C(C(C)CC)N1C2=O (stereo not shown) [example 42]
2. CCCOC1CCC2NC(=O)C(CC(C)C)NC(=O)C(NC(=O)C(CCC(N)=O)NC(=O)C(C)C)C(C)OC(=O)C(C(C)CC)NC(=O)C(Cc3ccc(OC)cc3)N(C)C(=O)C(C(C)CC)N1C2=O (stereo not shown) [example 37]
Prompt: Recorded IC50 values differ for 1 and 2 ; which one is higher? Could you answer with the label of the item you picked?
Completion: 2
(2: 2.5 nM, 1: 1 nM)

* * *

# pIC50 per record follows
Molecular target: Human neutrophil elastase (Homo sapiens, UniProt P08246)
Construct: purchased Elastin Products Company, Inc. (EPC, Owensville, USA) SE563
Sequence (P08246 30-267): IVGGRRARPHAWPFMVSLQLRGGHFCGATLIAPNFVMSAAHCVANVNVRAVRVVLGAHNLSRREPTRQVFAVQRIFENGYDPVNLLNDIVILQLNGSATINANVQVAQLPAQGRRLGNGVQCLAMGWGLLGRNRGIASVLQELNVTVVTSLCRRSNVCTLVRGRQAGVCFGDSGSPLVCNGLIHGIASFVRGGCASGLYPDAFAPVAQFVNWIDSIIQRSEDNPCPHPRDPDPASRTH
Assay: HNE inhibitory activity in vitro (fluorescence-quenched substrate)
Assay type: biochemical
Please report pIC50 as the negative decimal logarithm of the molar concentration, giving only the number.

CCOC1CCC2NC(=O)C(CC(C)C)NC(=O)C(NC(=O)C(CCC(N)=O)NC(=O)C(C)C)C(C)OC(=O)C(C(C)CC)NC(=O)C(Cc3ccc(O)cc3)N(C)C(=O)C(C(C)CC)N1C2=O (stereo not drawn)	8.05
CCC(C)C1NC(=O)C(Cc2ccc(O)cc2)N(C)C(=O)C(C(C)CC)N2C(=O)C(CCC2OCC(C)C)NC(=O)C(CC(C)C)NC(=O)C(NC(=O)C(CCC(N)=O)NC(=O)C(C)C)C(C)OC1=O (stereo not drawn)	8.22

For the next question, use this compound.
Prompt: Bench note: what pIC50 did CCC(C)C1NC(=O)C(Cc2ccc(O)cc2)N(C)C(=O)C(C(C)CC)N2C(=O)C(CCC2OCc2ccccc2)NC(=O)C(CC(C)C)NC(=O)C(NC(=O)C(CCC(N)=O)NC(=O)C(C)C)C(C)OC1=O (stereo not drawn) show?
Completion: 8.52

* * *

Target: human kallikrein 7 (Homo sapiens, UniProt P49862)
Sequence (P49862 30-253): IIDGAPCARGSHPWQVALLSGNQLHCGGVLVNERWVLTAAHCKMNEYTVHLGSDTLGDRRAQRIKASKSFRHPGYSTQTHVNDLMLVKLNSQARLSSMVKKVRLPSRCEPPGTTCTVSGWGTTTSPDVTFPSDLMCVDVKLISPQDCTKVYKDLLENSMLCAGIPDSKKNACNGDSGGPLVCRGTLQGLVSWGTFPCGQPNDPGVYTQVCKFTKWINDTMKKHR
Assay: Kallikrein-7 inhibitory activity in vitro (fluorescence-quenched substrate)
Format: biochemical
Conditions: Table 11; read-out: hKallikrein7 IC 50
Protocol: IC50 for human kallikrein can be measured using the fluorescence-quenched substrate Ac-Glu-Asp(EDANS)-Lys-Pro-Ale-Leu-Phe^Arg-Leu-Gly-Lys(DABCYL)-Glu-NH2 (where ^ indicates the scissile bond, identified by MS analysis) which can be purchased from Biosyntan (Berlin, Germany). […] The protease concentration in final assay solution is 0.2 nM (according to the enzyme concentrations determined by the Bradford method). […]
pIC50: −log10 of the molar value.
measuredEndpoint: pIC50

CCC(C)C1NC(=O)C(Cc2ccc(O)cc2)N(C)C(=O)C(C(C)CC)N2CCCC(NC(=O)C(CC(C)C)NC(=O)C(NC(=O)C(CCC#N)NC(=O)C(C)C)C(C)OC1=O)C2=O (stereo not drawn)	8.22

I. CCCOC1CCC2NC(=O)C(CC(C)C)NC(=O)C(NC(=O)C(CCC(N)=O)NC(=O)C(C)C)C(C)OC(=O)C(C(C)CC)NC(=O)C(Cc3ccc(OCC(=O)OC(C)(C)C)cc3)N(C)C(=O)C(C(C)CC)N1C2=O (stereo not drawn)
II. CCCOC1CCC2NC(=O)C(CC(C)C)NC(=O)C(NC(=O)C(CCC(N)=O)NC(=O)C(C)C)C(C)OC(=O)C(C(C)CC)NC(=O)C(Cc3ccc(OCC=CC(F)(F)F)cc3)N(C)C(=O)C(C(C)CC)N1C2=O (stereo not drawn)
Prompt: Recorded pIC50 values differ for I and II ; which one is higher? Could you answer with the label of the item you picked?
Completion: I

* * *

Biological target: human kallikrein 7 (Homo sapiens)
Assay: Kallikrein-7 inhibitory activity in vitro (fluorescence-quenched substrate)
Type: biochemical
Details: hKallikrein7 IC 50, Table 11
measuredEndpoint: pIC50
Please report pIC50 as the negative decimal logarithm of the molar concentration, giving only the number.

CCC(C)C1NC(=O)C(Cc2ccc(O)cc2)N(C)C(=O)C(C(C)CC)N2C(=O)C(CCC2OCC(F)(F)F)NC(=O)C(CC(C)C)NC(=O)C(NC(=O)C(CCC(N)=O)NC(=O)C(C)C)C(C)OC1=O (stereo not drawn) [example 7]	7.30
CCC(C)[C@@H]1NC(=O)[C@H](Cc2ccc(O)cc2)N(C)C(=O)[C@@H](C(C)CC)N2C=CC[C@H](NC(=O)[C@H](CC(C)C)NC(=O)[C@@H](NC(=O)[C@H](CCC(N)=O)NC(=O)C(C)C)[C@@H](C)OC1=O)C2=O (stereo partly drawn) [formula V]	8.22
CCC(C)C1NC(=O)C(Cc2ccc(O)cc2)N(C)C(=O)C(C(C)CC)N2C(=O)C(CCC2OCC(C)C)NC(=O)C(CC(C)C)NC(=O)C(NC(=O)C(CCC(N)=O)NC(=O)C(C)C)C(C)OC1=O (stereo not drawn) [example 12]	8.07
CCOC1CCC2NC(=O)C(CC(C)C)NC(=O)C(NC(=O)C(CCC(N)=O)NC(=O)C(C)C)C(C)OC(=O)C(C(C)CC)NC(=O)C(Cc3ccc(O)cc3)N(C)C(=O)C(C(C)CC)N1C2=O (stereo not drawn) [example 10]	8.46
CCC(C)[C@@H]1NC(=O)[C@H](Cc2ccc(O)cc2)N(C)C(=O)[C@H](C(C)CC)N2C(=O)C(CC[C@@H]2O)NC(=O)[C@H](CC(C)C)NC(=O)[C@@H](NC(=O)[C@H](CCC(N)=O)NC(=O)C(C)C)[C@@H](C)OC1=O (stereo partly drawn) [formula II]	9.00
CCC(C)[C@@H]1NC(=O)[C@H](Cc2ccc(O)cc2)N(C)C(=O)[C@H](Cc2ccccc2)N2C(=O)C(CC[C@@H]2O)NC(=O)[C@H](CC(C)C)NC(=O)[C@@H](NC(=O)[C@H](CCCNC(N)=O)NC(=O)C(C)C)[C@@H](C)OC1=O (stereo partly drawn) [formula XV]	8.40
C#CCOC1CCC2NC(=O)C(CC(C)C)NC(=O)C(NC(=O)C(CCC(N)=O)NC(=O)C(C)C)C(C)OC(=O)C(C(C)CC)NC(=O)C(Cc3ccc(O)cc3)N(C)C(=O)C(C(C)CC)N1C2=O (stereo not drawn) [example 18]	8.30
CCCOC1CCC2NC(=O)C(CC(C)C)NC(=O)C(NC(=O)C(CCC(N)=O)NC(=O)C(C)C)C(C)OC(=O)C(C(C)CC)NC(=O)C(Cc3ccc(O)cc3)N(C)C(=O)C(C(C)CC)N1C2=O (stereo not drawn) [example 5]	8.10

For the next question, use this compound.
Prompt: Query the reported pIC50 for human kallikrein 7 (Homo sapiens); item: CCC(C)C1NC(=O)C(Cc2ccc(O)cc2)N(C)C(=O)C(C(C)CC)N2C(=O)C(CCC2OCc2ccccc2)NC(=O)C(CC(C)C)NC(=O)C(NC(=O)C(CCC(N)=O)NC(=O)C(C)C)C(C)OC1=O (stereo not drawn) [example 9]
Completion: 8.70
